# Tested on: Huh7.5 cells
# experiment summary: Cell viability, CellTiter-Glo luminescent assay
# test parameters: 6A1HI analogues; test concentration = 50 µM; Huh7.5 cells
Friendly reminder: Cell viability (Fold DMSO) below 1 Fold DMSO is rule met, at or above is rule not met.

[[record]]
molecule = "N#CC(Cc1cccnc1)C(=O)Nc1ccccc1 (stereo not shown)"
label_value = "rule not met"

[[record]]
molecule = "Nc1cccc(-c2cccnc2)c1"
label_value = "rule met"

[[record]]
molecule = "Nc1ccc(C(=O)Nc2ccccc2)cc1"
label_value = "rule met"

[[record]]
molecule = "O=C(c1ccccc1)c1cccnc1"
label_value = "rule met"

[[record]]
molecule = "CC(=O)c1ccc2cn(C)nc2c1"
label_value = "rule met"


Please indicate whether the reported Cell viability (Fold DMSO) of "O=C(Nc1ccccc1Cl)c1cccnc1" is strictly below 1 Fold DMSO.
rule met

A record lists "O=C(NNc1ccccc1)c1ccncc1" . Is its Cell viability (Fold DMSO) below 1 Fold DMSO?
rule met

Given "O=C(Nc1ccncc1)c1ccccc1" , is recorded Cell viability (Fold DMSO) strictly lower than 1 Fold DMSO?
rule met

Could you please tell me whether Cell viability (Fold DMSO) recorded for "CC(=O)c1ccc2c(c1)OCO2" is less than 1 Fold DMSO?
rule met

----------
The entries below come with measured activity at 50 µM values attached.
# Tested on: DENV-R2A (Rluc-expressing DENV, serotype 2 strain 16681)
# experiment summary: microbe, parasite or virus in culture
# Assay type: cell-based, Dengue virus
# test parameters: Dengue virus, Huh7.5, 48 h, read-out: DENV-R2A replication (Fold DMSO), Table S3, NPP3C analogues, 50 µM, Huh7.5, 2 days postinfection
Could you give me the number in %? Just the number is fine.

[[record]]
compound = "NCc1ccc2cn[nH]c2c1 [Compound 6]"
readout_units = "%"
observed = 55

[[record]]
compound = "O=C(Nc1ccccc1)c1cccnc1 [NPP3C, N-phenylpyridine-3-carboxamide]"
readout_units = "%"
observed = 1.31

[[record]]
compound = "OCc1ccc2cn[nH]c2c1 [Compound 3]"
readout_units = "%"
observed = 89


Endpoint output: activity at 50 µM of CC(=O)c1ccc2c(c1)OCO2 [Compound 42] . Value?
153

What activity at 50 µM value was documented for this compound, Oc1ccc2[nH]ncc2c1 [Compound 18] ?
101

activity at 50 µM for CC(=O)c1ccc2cn(C)nc2c1 [Compound 4] ?
105

Name the recorded activity at 50 µM for CC(=O)c1cccc2cn[nH]c12 [Compound 9] .
107

----------
# System: Huh7.5 cells
# experiment summary: Cell viability, CellTiter-Glo luminescent assay
# test parameters: deconvolution screen, singletons, 50 µM, uninfected Huh7.5
Could you mark each record Satisfied if its Cell viability (fold DMSO) Mean falls strictly under 1 fold DMSO, and Not satisfied if it equals or exceeds it?

Worked cases, answers included:
[[record]]
compound = "CCNC(=O)N1CCC(O)CC1"
label_value = "Not satisfied"

[[record]]
compound = "O=C1CCCc2cc(O)ccc21"
label_value = "Not satisfied"

[[record]]
compound = "OC[C@@H]1Cc2ccccc2CN1 [PS-6029, OC[C@@H]1Cc2ccccc2CN1]"
label_value = "Satisfied"


Given the entry "Cc1cnn2c(C3CC3)ccnc12" , would its reported Cell viability (fold DMSO) Mean be below 1 fold DMSO?
Not satisfied

Does N[C@@H]1c2ccccc2C[C@@H]1O [PS-4272, N[C@H]1[C@@H](O)Cc2ccccc12] have Cell viability (fold DMSO) Mean strictly under 1 fold DMSO?
Not satisfied

# strict comparison: is reported Cell viability (fold DMSO) Mean < 1 fold DMSO? input = Cc1ccc(C2CNCCN2)cc1 (stereo not drawn)
Not satisfied

# TODO verify Cell viability (fold DMSO) Mean < 1 fold DMSO strictly for this compound: CC(C)(C)OC(=O)N1CCCCn2nc(CO)cc2C1 [Compound 10X-0603, CC(C)(C)OC(=O)N1CCCCn2nc(CO)cc2C1]
Not satisfied

Here's an entry: COc1ccccc1N1CCNC(C)C1 (stereo not drawn) . Is its Cell viability (fold DMSO) Mean below 1 fold DMSO?
Not satisfied
